In this section we review reported growth values for a set of compounds.
tested on: MDA-MB-231 breast; test: NCI-60 one-dose screen, 48 h (100 = growth as untreated, 0 = no growth, -100 = all killed); settings: 10 µM unless noted
Compounds without any hit were thinned out: in the full panel of roughly 83,000, 20% have a hit.
Form entry: value (%) — number only.

These solved cases illustrate the format of a correct answer.
Param item: Cc1nn(-c2ccccc2)c2nc3nc4c(c(N)c3c(-c3ccc(Cl)cc3)c12)CCC4 ; param system: MDA-MB-231 breast; output growth: 88.1

Bench note, MDA-MB-231 breast: entry CC1(C)N=C(N)N=C(N)N1c1cccc(OCCOc2cccc([N+](=O)[O-])c2)c1 , its growth = 65

Further cases:
The compound Clc1ccc(Nc2ccnc(N3CCN(c4ccnc5cc(Cl)ccc45)CC3)n2)cc1 on MDA-MB-231 breast: growth was 33.8

Sample O=C1C=CC(=O)N1CCCCCCCCCCN1C(=O)C=CC1=O , system: MDA-MB-231 breast. Its growth is 104

GET /values?item= COc1ccc(/C=C2\SC(=O)N(CN3CCN(c4cc5c(cc4F)c(=O)c(C(=O)O)cn5C4CC4)CC3)C2=O)cc1 &system= MDA-MB-231 breast returns growth: 106
